Source of measurements: PubChem BioAssay (NCATS)

Experiment: qHTS of pediatric cancer cell lines to identify multiple opportunities for drug repurposing: Primary screen for NB-EBc1 cells (AID 1347095)
Details: NB-EBc1 neuroblastoma viability, CellTiter-Glo luminescence, 48 h; series mostly up to 46 µM
Inconclusive results are not listed. Calls of active or inactive are those of the source. The call rests on the fitted dose curve; in most records, active means well fitted cell-killing curve with a large enough effect; inconclusive means small, poorly fitted or top-dose-only effect; inactive means no such curve, though single readings can be large or run the other way.
// allowed return values: 1 (yes) (active), 0 (no) (inactive)

Ask: Tell me the recorded outcome of this test for NC[C@@H]1O[C@@H](O[C@H]2[C@@H](O)[C@H](O[C@@H]3[C@@H](O)[C@@H](N)C[C@H](N)[C@H]3O[C@H]3O[C@H](CN)[C@@H](O)[C@@H](O)[C@H]3N)O[C@H]2CO)[C@H](N)[C@@H](O)[C@@H]1O .
Reply: 0 (no)

Ask: Tell me the recorded outcome of this test for CC(C)=CC[C@@H](O)C1=CC(=O)c2c(O)ccc(O)c2C1=O .
Reply: 1 (yes)

Ask: Tell me the recorded outcome of this test for O=c1ccn([C@@H]2O[C@H](CO)[C@H](O)[C@H]2O)c(=O)[nH]1 .
Reply: 0 (no)

Ask: Tell me the recorded outcome of this test for NC1CCC(Nc2nc(Nc3ccc(C(=O)N4CCCCC4)cc3)c3ncn(-c4cccc(F)c4)c3n2)CC1 (stereo not drawn) .
Reply: 0 (no)

Ask: Tell me the recorded outcome of this test for CC(=O)Nc1ccc([C@H](C)C(=O)Nc2ncc(C(C)C)s2)cc1 .
Reply: 1 (yes)

Ask: Tell me the recorded outcome of this test for O=C1NC(=O)C(c2ccccc2)(c2ccccc2)N1 .
Reply: 0 (no)

Ask: Tell me the recorded outcome of this test for CON=C(C(=O)N[C@@H]1C(=O)N2C(C(=O)OCOC(=O)C(C)(C)C)=C(C=Cc3scnc3C)CS[C@H]12)c1csc(N)n1 .
Reply: 0 (no)

Ask: Tell me the recorded outcome of this test for O=C(NC1CCOCC1)c1ccc(-c2cc(-c3cn[nH]c3-c3ccccn3)ccn2)cc1 .
Reply: 0 (no)
